Hi there, I'd appreciate the recorded Percent Effect for every entry that follows.
Target: Protein translocase subunit SecA (Escherichia coli (strain K12))
Assay: Assay to Identify E. coli SecA ATPase Inhibitors
Type: functional
Parameters: scale not given: direction of the effect not stated beside the values
Conditions: 30 µM
Measured potencies and affinities stand elsewhere.
One number for each entry, in %.

- Cc1nc(CN2CCCn3c(nc(Cn4ccnc4)cc3=O)C2)cs1: -3.95
- Cc1cccc(Cn2c3c(ccc2=O)CCN(Cc2ccoc2)CC3)n1: -0.765
- Cc1nn(CC(C)C)c(N(C)C)c1CNCc1cccc2c1OCO2: 3.79

Take each entry in turn and give its Percent Effect.
1. c1cnnc(N2CCCC2CNCc2cc[nH]n2)c1 (centres undefined)
2. COc1ccc(OC)c(NC(=O)N2CCCC2c2ccco2)c1 (centres undefined)
3. CO[C@H]1CCN(S(=O)(=O)c2cn(C)cn2)[C@H]1Cc1cccnc1

1. -2.52
2. -1.78
3. -3.74

Take each entry in turn and give its Percent Effect.
1. CCOc1ccc(Cl)c(C(=O)N2CCN(c3cnccn3)CC2)n1
2. CNS(=O)(=O)Cc1ccc(CNC(=O)Nc2cn[nH]c2)cc1
3. Cc1cnc(CN(C)C2CCN(CC(=O)Nc3c(C)n[nH]c3C)C2)o1 (centres undefined)

1: -4.82; 2: -5.68; 3: 3.19

Take each entry in turn and give its Percent Effect.
1. CC(OCC(F)(F)F)C(=O)NCc1ccc(-n2cncn2)nc1 (centres undefined)
2. CCc1nccn1C1CCCN(C(=O)c2ccc3c(c2)OCO3)C1 (centres undefined)
3. Cc1nnc(N2CC[C@H]3C[C@H](C(=O)N4CCOCC4)O[C@H]3C2)s1

-1.15
-3.94
-2.55

Take each entry in turn and give its Percent Effect.
1. CCc1cc(N[C@H]2CC[C@H](O)CC2)n2nc(C)c(C)c2n1
2. COCc1cn([C@@H]2c3ccccc3C3(CCNCC3)[C@H]2O)nn1
3. Cc1ccc(=O)n(CC2(O)CCN(Cc3ccsc3)CC2)n1

[-3.74, -4.27, 1.03]

###

Target: Protein translocase subunit SecA (Escherichia coli (strain K12)) (UniProt P10408)
Sequence (P10408 whole entry): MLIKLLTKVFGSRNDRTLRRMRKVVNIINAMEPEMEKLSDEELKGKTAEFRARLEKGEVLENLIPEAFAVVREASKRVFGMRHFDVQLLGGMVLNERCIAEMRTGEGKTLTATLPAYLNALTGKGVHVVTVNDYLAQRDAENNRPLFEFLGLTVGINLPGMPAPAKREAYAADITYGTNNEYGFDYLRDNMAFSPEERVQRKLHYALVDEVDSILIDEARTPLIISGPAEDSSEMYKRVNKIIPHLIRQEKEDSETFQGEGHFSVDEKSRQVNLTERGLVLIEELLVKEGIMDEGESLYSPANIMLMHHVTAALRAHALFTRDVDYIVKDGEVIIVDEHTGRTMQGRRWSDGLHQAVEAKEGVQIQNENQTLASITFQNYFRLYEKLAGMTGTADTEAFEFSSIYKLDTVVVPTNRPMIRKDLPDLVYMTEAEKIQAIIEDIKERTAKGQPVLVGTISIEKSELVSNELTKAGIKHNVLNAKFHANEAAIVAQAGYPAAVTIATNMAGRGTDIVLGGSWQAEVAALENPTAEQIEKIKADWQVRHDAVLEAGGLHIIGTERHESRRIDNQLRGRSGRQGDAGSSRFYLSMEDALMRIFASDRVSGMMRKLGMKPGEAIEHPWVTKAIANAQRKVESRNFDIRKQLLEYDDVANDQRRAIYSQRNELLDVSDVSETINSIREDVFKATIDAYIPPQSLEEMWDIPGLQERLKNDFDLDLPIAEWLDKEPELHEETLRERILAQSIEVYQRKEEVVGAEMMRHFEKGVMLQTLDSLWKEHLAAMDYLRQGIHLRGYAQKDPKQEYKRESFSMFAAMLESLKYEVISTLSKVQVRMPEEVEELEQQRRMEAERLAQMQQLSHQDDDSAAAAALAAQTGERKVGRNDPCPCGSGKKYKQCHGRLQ
Test: Assay to Identify E. coli SecA ATPase Inhibitors
Format: functional
Parameters: scale not given: direction of the effect not stated beside the values
Conditions: 30 µM
Results with a measured potency or affinity are listed apart.
endpoint: Percent Effect (%)
Numbers only, in %.

# example entries with known answers
• CCc1c(C)sc(NC(=O)CN2CCN(CC)CC2)c1C(=O)OC = -1.97
• CCn1nc(CC(C)C)cc1C(=O)NCCn1cccc1 = -6.33
• CC(=O)N1CCC(Cc2cnc(-c3c(C)n[nH]c3C)cn2)C1 (stereo not drawn) = -5.08
• CC(C)(C)n1cc(C(=O)N2CCN(Cc3ccccc3F)CC2)cn1 = -2.41
• CC(C)N1CCCC(CCCc2ccccn2)(C(=O)O)C1 (stereo not drawn) = -3.09

Take each entry in turn and give its Percent Effect.
1. CN(C)CCNC(=O)c1ccc(OC2CCN(S(C)(=O)=O)CC2)c(Cl)c1
2. CC1CCN(CCNC(=O)c2ccccc2N2CCOCC2)CC1
3. Cc1ccc(N2CCCc3sc(C(=O)NCc4cccnc4)nc32)nn1

[-6.99, 0.622, -3.86]

###

Target: Arginase-2, mitochondrial (Homo sapiens) (UniProt P78540)
Sequence (P78540 whole entry): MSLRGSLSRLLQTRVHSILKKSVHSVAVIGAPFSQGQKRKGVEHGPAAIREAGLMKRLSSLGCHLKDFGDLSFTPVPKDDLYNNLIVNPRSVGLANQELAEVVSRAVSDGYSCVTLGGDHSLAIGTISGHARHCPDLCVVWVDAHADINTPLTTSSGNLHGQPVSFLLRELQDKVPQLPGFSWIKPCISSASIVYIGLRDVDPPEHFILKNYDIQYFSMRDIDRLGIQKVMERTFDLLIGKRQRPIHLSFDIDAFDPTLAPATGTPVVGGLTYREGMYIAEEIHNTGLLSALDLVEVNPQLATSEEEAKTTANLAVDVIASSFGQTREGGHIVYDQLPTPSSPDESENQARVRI
Assay: in vitro enzyme assay to detect the production of urea directly proportional to the activity of Arginase II; note: in the data most compounds retested in dose-response had high values
Format: functional
Parameters: scale not given: direction of the effect not stated beside the values
Settings: 33.3 µM
Hi there, I'd appreciate the recorded Percent Effect for every entry that follows.
Answers are plain numbers, in %.

# example entries with known answers
* Cc1n[nH]c(C2CN(C(=O)c3ccco3)CCO2)n1 (stereo unspecified) | 0
* CN(C)C[C@H]1OC[C@@H]2CCN(C(=O)c3cccn3C)C[C@@H]21 | 9.18
* Cc1nn(C)c(N(C)C)c1CNCC(O)COc1ccc(F)cc1 (stereo unspecified) | 0.909
* CC(=O)c1cn(CCC(=O)N[C@H](C(=O)O)C(C)C)c2ccccc12 | -9.68
* CC(C)c1ccc(CN2CCC3(CCCN(c4nncs4)C3)C2)cc1 (stereo unspecified) | -1.74
* CN(C)c1nc2c(c(N3CCC(O)CC3)n1)CN(CC1CCNC1)CC2 (stereo unspecified) | 0.476
* O=S1(=O)CCN(Cc2cccnc2)[C@H]2CCN(c3ncccn3)CC[C@H]21 | -0.417
* Cn1cc(C2CCCN2C(=O)c2ccc(Br)o2)cn1 (stereo unspecified) | 1.08

Take each entry in turn and give its Percent Effect.
1. c1cc(-c2cnccn2)cc(-c2ccn(CCN3CCCC3)n2)c1
2. Cc1cc(NC(=O)CN2CCc3nn(C)c(=O)cc3C2)on1
3. CCCNC(=O)CNC(=O)CCc1ccccc1Br

1. -10.9
2. 7.06
3. 13.7

###

Molecular target: Proteasome subunit beta (Trypanosoma cruzi) (UniProt O96673)
Sequence (whole entry): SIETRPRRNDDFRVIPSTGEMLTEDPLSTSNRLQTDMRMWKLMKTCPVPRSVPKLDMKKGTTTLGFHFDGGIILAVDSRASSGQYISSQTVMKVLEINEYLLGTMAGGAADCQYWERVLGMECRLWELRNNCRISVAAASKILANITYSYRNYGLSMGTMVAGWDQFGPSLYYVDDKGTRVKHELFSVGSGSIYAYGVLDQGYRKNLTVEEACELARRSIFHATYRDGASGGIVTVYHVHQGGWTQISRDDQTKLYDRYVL
Experiment: Trypanosoma cruzi proteasome chymotrypsin-like activity (TcProtChymo) assay. Note: in the data most compounds retested in dose-response had high values.
Assay type: functional
Parameters: scale not given: direction of the effect not stated beside the values
Details: 9.37 µM
Classification field: 1 (yes) = Percent Effect at or over 10%; 0 (no) = Percent Effect under 10%.

- Cc1cc(CN(C)C(=O)C2CCCN(C(=O)c3ccc(Cl)cc3)C2)no1 (configuration not stated): 1 (yes)
- CCNC(=O)[C@@H]1C[C@H](NC(=O)c2ccccc2C#N)CN1CCCSC: 1 (yes)
- Cc1cccc(-n2cc(C(=O)N3CCCC(n4cccn4)C3)nn2)c1 (configuration not stated): 1 (yes)

Reported Percent Effect at or above 10%? CCc1ncc2c(n1)CN(Cc1nnc(C)o1)CC2 0 (no)

Reported Percent Effect at or above 10%? c1cnnc(N2CCCC2CNc2nc3ccccc3o2)c1 (configuration not stated) 1 (yes)

Reported Percent Effect at or above 10%? O=C(CN1CCCCC1Cn1cccn1)NC1CCN(C2CC2)CC1 (configuration not stated) 1 (yes)

Reported Percent Effect at or above 10%? Cc1nnc(NC(=O)NCc2ccc(N3CCN(C)CC3)nc2)s1 1 (yes)

Reported Percent Effect at or above 10%? Cc1cc(CN2CCN(CC(O)C(C)(C)C)CC2)no1 (configuration not stated) 0 (no)

Reported Percent Effect at or above 10%? COCCc1noc(CN2CCN(CC(O)c3ccccc3)CC2)n1 (configuration not stated) 0 (no)

Reported Percent Effect at or above 10%? Cc1cc(C2CCCN(CCCNS(C)(=O)=O)C2)n[nH]1 (configuration not stated) 0 (no)

Reported Percent Effect at or above 10%? Cc1n[nH]c(C2CN(C(=O)CCc3ccco3)CCO2)n1 (configuration not stated) 1 (yes)

###

Hi there, I'd appreciate the recorded Percent Effect for every entry that follows.
Biological target: Chromo domain-containing protein 1 (Saccharomyces cerevisiae (strain ATCC 204508 / S288c) (Baker's yeast)) (UniProt P32657)
Sequence (P32657 whole entry, the tested form may be a part): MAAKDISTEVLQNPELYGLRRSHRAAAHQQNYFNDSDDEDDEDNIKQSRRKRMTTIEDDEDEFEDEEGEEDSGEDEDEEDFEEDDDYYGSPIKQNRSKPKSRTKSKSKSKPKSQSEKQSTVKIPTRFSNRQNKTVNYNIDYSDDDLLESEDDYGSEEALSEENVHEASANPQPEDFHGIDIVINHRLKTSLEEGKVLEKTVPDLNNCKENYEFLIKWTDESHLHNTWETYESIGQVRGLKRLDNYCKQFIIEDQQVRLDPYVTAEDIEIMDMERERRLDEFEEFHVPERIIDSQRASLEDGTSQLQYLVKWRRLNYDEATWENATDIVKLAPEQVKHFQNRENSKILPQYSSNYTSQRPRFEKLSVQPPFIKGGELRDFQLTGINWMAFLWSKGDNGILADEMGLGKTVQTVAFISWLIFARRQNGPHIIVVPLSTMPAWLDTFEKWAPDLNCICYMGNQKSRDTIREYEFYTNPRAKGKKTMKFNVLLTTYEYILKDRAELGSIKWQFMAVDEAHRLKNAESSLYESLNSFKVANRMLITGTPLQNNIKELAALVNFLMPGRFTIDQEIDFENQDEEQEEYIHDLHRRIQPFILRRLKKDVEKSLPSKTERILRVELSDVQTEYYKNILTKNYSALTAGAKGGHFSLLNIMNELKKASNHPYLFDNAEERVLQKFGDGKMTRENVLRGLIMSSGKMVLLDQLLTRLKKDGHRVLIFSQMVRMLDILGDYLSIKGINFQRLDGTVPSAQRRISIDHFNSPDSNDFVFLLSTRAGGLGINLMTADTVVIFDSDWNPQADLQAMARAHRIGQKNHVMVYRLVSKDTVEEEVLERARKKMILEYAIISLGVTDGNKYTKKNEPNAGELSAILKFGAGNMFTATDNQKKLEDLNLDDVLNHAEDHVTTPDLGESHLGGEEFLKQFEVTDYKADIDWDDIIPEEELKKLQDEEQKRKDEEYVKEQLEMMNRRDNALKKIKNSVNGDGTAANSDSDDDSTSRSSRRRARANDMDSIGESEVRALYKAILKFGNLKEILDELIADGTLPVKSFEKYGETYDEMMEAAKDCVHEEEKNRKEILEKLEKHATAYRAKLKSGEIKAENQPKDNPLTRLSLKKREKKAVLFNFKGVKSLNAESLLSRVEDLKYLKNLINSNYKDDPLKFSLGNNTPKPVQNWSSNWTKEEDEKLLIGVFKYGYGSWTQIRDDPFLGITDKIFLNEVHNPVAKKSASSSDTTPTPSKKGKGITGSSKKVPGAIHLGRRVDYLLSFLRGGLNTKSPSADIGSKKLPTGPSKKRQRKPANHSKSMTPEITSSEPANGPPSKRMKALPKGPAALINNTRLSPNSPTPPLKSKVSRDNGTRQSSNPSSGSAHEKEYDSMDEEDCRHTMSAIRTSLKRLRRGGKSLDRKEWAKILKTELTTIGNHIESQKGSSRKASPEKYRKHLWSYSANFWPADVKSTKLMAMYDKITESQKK
Assay: ScCHD-1 Enzyme Inhibition Assay; note: in the data most compounds retested in dose-response had high values
Format: functional
Set-up: scale not given: direction of the effect not stated beside the values
Conditions: 30 µM
Include the unit right after the number.

Take each entry in turn and give its Percent Effect.
1. Fc1ccc(CN2CCCN(Cc3cscn3)CC2)cc1
2. Cc1ccc(C(=O)O)cc1S(=O)(=O)Nc1nn(-c2ccccc2)cc1C
3. Cn1nccc1CNC(=O)Nc1cc(C(F)(F)F)c[nH]c1=O

-21.9%
-5.76%
-9.48%

###

Target: Chromo domain-containing protein 1 (Saccharomyces cerevisiae (strain ATCC 204508 / S288c) (Baker's yeast)) (UniProt P32657)
Assay: ScCHD-1 Enzyme Inhibition Assay; note: in the data most compounds retested in dose-response had high values
Format: functional
Parameters: scale not given: direction of the effect not stated beside the values
Conditions: 30 µM
endpoint: Percent Effect (%)
One number for each entry, in %.

# example entries with known answers
- COc1cc(C)nc(N2CCN(C(=O)c3ccccc3C)CC2)n1: -18.4
- CC(C)c1nc(C(=O)N2CCOCC2CC(=O)c2ccco2)c[nH]1 (stereo unspecified): 1.37
- Cc1cc(CN(C)C(=O)c2cc3c([nH]c2=O)CCCC3=O)no1: -0.0983
- Cc1nc(CCCNC(=O)C2CC(=O)N(C3CC3)C2)sc1C (stereo unspecified): 2.71
- CCSCCC(=O)Nc1ncn(CC(=O)NCc2ccccc2)n1: -2.42
- CC(C)c1nn(C)c(Cl)c1CNCC(O)c1cccc(F)c1 (stereo unspecified): -7
- CC(C)OCc1ccc(CNC(=O)CC(F)(F)F)cc1: -9.86
- Cc1ccc(C)n1-c1ccc(C(=O)NCCNc2ncccn2)cc1: 0.738
- CCN1CCC(c2nc3ccc(NC(C)C)cn3n2)CC1: 0.337
- O=C(c1cc(=O)[nH]c(=O)[nH]1)N1CCCCC1c1nc2cc(F)ccc2[nH]1 (stereo unspecified): -2.87

Here is another molecule to look at.
Give Percent Effect for the following molecule: N#CCCN(C(=O)CN1CCCC1Cc1ccccc1)c1ccccc1 (stereo unspecified) -6.86
